# system_name: dialkylglycine decarboxylase (DGD); WT DGD (Burkholderia cepacia, UniProt P16932, M141R/W138F)
# experiment_summary: biochemical
measured_property: pKi
In plain terms, pKi is the concentration in mol/L turned into minus its base-10 logarithm.

Given item N[C@H](CCC(=O)O)C(=O)O [D-glutamate] , the value recorded as its pKi is 1.05
